Cited source for all entries: ChEMBL document CHEMBL3988442

- TARGET_OR_SYSTEM: Arginase-2, mitochondrial (Homo sapiens) (UniProt P78540)
- Sequence (P78540 whole entry): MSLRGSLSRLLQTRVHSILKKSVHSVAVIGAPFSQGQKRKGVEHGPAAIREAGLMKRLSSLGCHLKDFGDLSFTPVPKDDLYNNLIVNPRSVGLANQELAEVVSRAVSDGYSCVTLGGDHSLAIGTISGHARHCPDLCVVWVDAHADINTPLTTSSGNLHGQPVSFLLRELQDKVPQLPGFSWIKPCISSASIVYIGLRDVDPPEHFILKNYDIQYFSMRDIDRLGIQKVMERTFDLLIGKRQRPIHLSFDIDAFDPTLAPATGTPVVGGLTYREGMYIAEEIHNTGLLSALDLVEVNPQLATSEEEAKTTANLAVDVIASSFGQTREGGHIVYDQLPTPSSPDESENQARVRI
- ASSAY_COMMENT: in vitro enzyme assay to detect the production of urea directly proportional to the activity of Arginase II
- Type: functional
- Design: scale not given: in the data most compounds retested in dose-response had high values
- CONDITION_CONTEXT: 33.3 µM
MEASURED_ENDPOINT: Percent Effect (%)
Unit % implied. Number only.

Known results for molecules:
* Cc1ccc(CC(=O)NCCCNS(C)(=O)=O)cc1 | -1.94
* Cc1ccc(S(=O)(=O)N2CSCC2C(=O)N(C)C2CC2)cc1Cl (stereo not given) | 1.74

Which measured Percent Effect value corresponds to O=C(c1cnco1)N1CCCC(Cc2cccc3ncccc23)C1 (stereo not given) ? 0.696

Which measured Percent Effect value corresponds to `O=C(NC1=NCCCN1c1ccc(Cl)cc1)c1cccc(Cl)c1` ? 1.38

Which measured Percent Effect value corresponds to `COc1ccc(OCc2nc(C(=O)N3CC(O)C3)co2)cc1` ? 1.43

Which measured Percent Effect value corresponds to CC(NC(=O)NCCCc1n[nH]c(N)c1C#N)c1ccccc1 (stereo not given) ? -11.8

Which measured Percent Effect value corresponds to O=C(NCC1OCCc2cn(CC3CC3)nc21)c1ccsc1 (stereo not given) ? 1.94

Which measured Percent Effect value corresponds to Cc1nc(C2CCCN(C(=O)c3sccc3C3CC3)C2)no1 (stereo not given) ? -0.442
